- System: WM3928 cells
- EXPERIMENT DESCRIPTION: WM3928 Cell Proliferation Assay (1)
- Type: cell-based
VALUE KIND: IC50

{"columns": ["COMPOUND SMILES", "VALUE REPORTED"],
 "data": [
  ["Cc1ccc(NC(=O)c2ccnc(C(C)(C)C#N)c2)cc1-c1cccc(-c2ccnc(NC(=O)C3CC3)c2)c1", "≤ 100 nM"],
  ["Cc1cc(F)c(NC(=O)c2ccnc(C(F)F)c2)cc1-c1ccnc(-c2ccnc(NC(=O)C3CC3)c2)c1", "100 to 500 nM"],
  ["Cc1cc(F)c(NC(=O)c2ccnc(C(C)(C)F)c2)cc1-c1cncc(-c2cc(NC(=O)C3CC3)ncn2)c1", "≤ 100 nM"],
  ["CC(=O)Nc1cc(-c2cncc(-c3cc(NC(=O)c4cccc(C(C)(C)C#N)c4)ccc3C)n2)ccn1", "≤ 100 nM"],
  ["Cc1ncc(NC(=O)c2cnn(C(C)(C)C)c2)cc1-c1ccnc(-c2ccnc(NC(=O)C3CC3)c2)n1", "100 to 500 nM"],
  ["Cc1ccc(NC(=O)c2ccnc(C(C)(C)C#N)c2)cc1-c1cccc(-c2cc(NC(=O)C3(C)CC3)ncn2)c1", "≤ 100 nM"],
  ["Cc1ccc(NC(=O)c2ccnc(C3CC3)c2)cc1-c1ccnc(-c2ccnc(NC(=O)C3CC3)c2)n1", "≤ 100 nM"],
  ["CC(=O)Nc1cc(-c2cccc(-c3cc(NC(=O)c4ccnc(C(F)(F)F)c4)c(F)cc3C)c2)ncn1", "≤ 100 nM"],
  ["Cc1cc(C(=O)Nc2cnc(C)c(-c3ccnc(-c4ccnc(NC(=O)C5CC5)c4)n3)c2)ccn1", "1000 to 10000 nM"],
  ["Cc1ccc(NC(=O)c2ccnc(C(C)(C)F)c2)cc1-c1cc(-c2ccnc3[nH]ncc23)cnn1", "1000 to 10000 nM"],
  ["Cc1ccc(NC(=O)c2cnnc(C3CC3)c2)cc1-c1ccnc(-c2ccnc(NC(=O)C3CC3)c2)n1", "100 to 500 nM"],
  ["CNC(=O)c1cc(-c2cccc(-c3cc(NC(=O)c4ccnc(C(C)(C)C#N)c4)cnc3C)c2)ncn1", "100 to 500 nM"],
  ["Cc1cc(F)c(NC(=O)c2ccnc(C(C)(C)C#N)c2)cc1-c1cncc(-c2ccnc(NC(=O)C3CC3)c2)c1", "≤ 100 nM"],
  ["Cc1ncc(NC(=O)c2ccnc(C(C)(C)C#N)c2)cc1-c1cccc(-c2ccnc(NC(=O)C3CC3)c2)n1", "≤ 100 nM"],
  ["CNC(=O)c1cc(-c2cncc(-c3cc(NC(=O)c4ccnc(C(C)(C)C#N)c4)ccc3C)c2)ncn1", "≤ 100 nM"],
  ["COCCNc1cc(-c2cccc(-c3cc(NC(=O)c4ccnc(C(F)(F)F)c4)ccc3C)c2)ncn1", "500 to 1000 nM"],
  ["Cc1ncc(NC(=O)c2ccnc(C3CC3)c2)cc1-c1ccnc(-c2ccnc(NC(=O)C3CC3)c2)c1", "≤ 100 nM"],
  ["CC(=O)Nc1cc(-c2ccnc(-c3cc(NC(=O)c4ccnc(C(C)(C)C#N)c4)ccc3C)n2)ccn1", "≤ 100 nM"],
  ["CNC(=O)c1cc(-c2cc(-c3cc(NC(=O)c4ccnc(C5(C#N)CC5)c4)ccc3C)ncn2)ccn1", "≤ 100 nM"],
  ["CCOc1ncc(-c2cc(NC(=O)c3ccnc(C(F)(F)F)c3)ccc2C)cc1-c1ccnc(NC(C)=O)c1", "≤ 100 nM"],
  ["CCC(=O)Nc1cc(-c2cccc(-c3cc(NC(=O)c4ccnc(C(C)(C)C#N)c4)cnc3C)n2)ccn1", "≤ 100 nM"],
  ["Cc1ccc(NC(=O)c2ccnc(C(C)(C)C#N)c2)cc1-c1cccc(-c2ncnc3c2CC(=O)N3)c1", "≤ 100 nM"],
  ["Cc1ccc(NC(=O)c2ccnc(C(F)(F)F)c2)cc1-c1cccc(-c2cc(NC(=O)C3CC3)ncn2)c1", "100 to 500 nM"],
  ["Cc1ncc(NC(=O)c2ccnc(C(C)(C)F)c2)cc1-c1cccc(-c2cc(NC(=O)C3CC3)ncn2)c1", "≤ 100 nM"],
  ["Cc1ccc(NC(=O)c2ccnc(C(C)(C)C#N)c2)cc1-c1cccc(-c2cc(NC(=O)C3CC3)ncn2)c1", "≤ 100 nM"],
  ["COC(=O)Nc1cc(-c2cccc(-c3cc(NC(=O)c4ccnc(C(C)(C)C#N)c4)cnc3C)c2)ncn1", "≤ 100 nM"],
  ["CC(=O)Nc1cc(-c2cncc(-c3cc(NC(=O)c4ccnc(C5CC5)c4)ccc3C)n2)ccn1", "≤ 100 nM"],
  ["COC(=O)Nc1cc(-c2cc(-c3cc(NC(=O)c4ccnc(C(F)(F)F)c4)cnc3C)ccn2)ccn1", "1000 to 10000 nM"],
  ["COc1ccc(NC(=O)c2ccnc(C(C)(C)C#N)c2)cc1-c1cccc(-c2cc(NC(=O)C3CC3)ncn2)c1", "≤ 100 nM"]
]}

src = patent US12319655B2
